target: Cathepsin B (Homo sapiens, UniProt P07858); assay: Inhibition of human recombinant cathepsin B assessed as factor by which the product formation changes when the inhibitor binds to the enzyme-substrate complex using Z-Arg-Arg-AMC as substrate by fluorescence microplate assay
Listed here: items and their measured fold change (FC).

STRUCTURE SMILES STRING: O=C(O)CSc1nc(SCc2ccccc2)nc(=O)[nH]1
MEASUREMENT TARGET: Cathepsin B (Homo sapiens, UniProt P07858)
fold change (FC): 0
//
STRUCTURE SMILES STRING: O=c1nc(SCc2ccccc2)nc(SCc2ccc(Cl)cc2)[nH]1
MEASUREMENT TARGET: Cathepsin B (Homo sapiens, UniProt P07858)
fold change (FC): 0.25
//
STRUCTURE SMILES STRING: O=c1nc(SCc2ccccc2)nc(SCC2CCCC2)[nH]1
MEASUREMENT TARGET: Cathepsin B (Homo sapiens, UniProt P07858)
fold change (FC): 0
//
STRUCTURE SMILES STRING: O=c1nc(SCc2ccccc2)nc(SCC2CCCCC2)[nH]1
MEASUREMENT TARGET: Cathepsin B (Homo sapiens, UniProt P07858)
fold change (FC): 0.12
//
STRUCTURE SMILES STRING: O=c1nc(SCc2ccccc2)nc(SCc2cccc(Cl)c2)[nH]1
MEASUREMENT TARGET: Cathepsin B (Homo sapiens, UniProt P07858)
fold change (FC): 0.28
//
STRUCTURE SMILES STRING: COc1cccc(CSc2nc(SCc3ccccc3)nc(=O)[nH]2)c1
MEASUREMENT TARGET: Cathepsin B (Homo sapiens, UniProt P07858)
fold change (FC): 0.42
//
STRUCTURE SMILES STRING: CCSc1nc(SCc2ccccc2)nc(=O)[nH]1
MEASUREMENT TARGET: Cathepsin B (Homo sapiens, UniProt P07858)
fold change (FC): 0
//
STRUCTURE SMILES STRING: O=c1nc(SCc2ccccc2)nc(SCC2CCC2)[nH]1
MEASUREMENT TARGET: Cathepsin B (Homo sapiens, UniProt P07858)
fold change (FC): 0
//
STRUCTURE SMILES STRING: N#Cc1ccccc1CSc1nc(SCc2ccccc2)nc(=O)[nH]1
MEASUREMENT TARGET: Cathepsin B (Homo sapiens, UniProt P07858)
fold change (FC): 0.04
//
STRUCTURE SMILES STRING: O=c1nc(SCc2ccccc2)nc(SCc2ccc(F)cc2)[nH]1
MEASUREMENT TARGET: Cathepsin B (Homo sapiens, UniProt P07858)
fold change (FC): 0.33
//
STRUCTURE SMILES STRING: N#Cc1cccc(CSc2nc(SCc3ccccc3)nc(=O)[nH]2)c1
MEASUREMENT TARGET: Cathepsin B (Homo sapiens, UniProt P07858)
fold change (FC): 0.02
//
STRUCTURE SMILES STRING: COc1ccc(CSc2nc(SCc3ccccc3)nc(=O)[nH]2)cc1
MEASUREMENT TARGET: Cathepsin B (Homo sapiens, UniProt P07858)
fold change (FC): 0.2

----------
target: Cathepsin B (Homo sapiens); experiment: Mixed-type inhibition of human recombinant cathepsin B assessed as formation of fluorescent degradation product AMC using Z-Arg-Arg-AMC as substrate by Michaelis-Menten method
Hi! Could you tag entries with Ki below 50 µM as 1.0, and those at or above as 0.0? Much appreciated.

STRUCTURE SMILES STRING: CCSc1nc(SCc2ccccc2)nc(=O)[nH]1
ASSIGNED LABEL: 0.0
//
STRUCTURE SMILES STRING: O=c1nc(SCc2ccccc2)nc(SCC2CC2)[nH]1
ASSIGNED LABEL: 1.0
//
STRUCTURE SMILES STRING: O=c1nc(SCc2ccccc2)nc(SCC2CCC2)[nH]1
ASSIGNED LABEL: 1.0
//
STRUCTURE SMILES STRING: O=c1nc(SCc2ccccc2)nc(SCC2CCCC2)[nH]1
ASSIGNED LABEL: 1.0
//
STRUCTURE SMILES STRING: N#CCSc1nc(SCc2ccccc2)nc(=O)[nH]1
ASSIGNED LABEL: 0.0
//
STRUCTURE SMILES STRING: O=C(O)CSc1nc(SCc2ccccc2)nc(=O)[nH]1
ASSIGNED LABEL: 0.0
//
STRUCTURE SMILES STRING: CCCCSc1nc(SCc2ccccc2)nc(=O)[nH]1
ASSIGNED LABEL: 1.0
